The values you see were collected from patent US12240857B2.

assayProcedure: in vivo
conditions: male, CD-1, mouse, iv, 1 mg/kg
propertyLabel: Tmax (min)
All answers are understood in min, so give the number only.

# get_value(readout='Tmax', item= CC12CC3CC(C(=O)N[C@H]4CC[C@H](N)CC4)(C1)CC(c1ccccc1)(C3)C2.Cl (stereo partly shown) )
4.98

====

Tested on: Vero cells
conditions: African green monkey
Let's look at some compounds and their measured % cell viability at 10 μM.
All answers are understood in %, so give the number only.

CC(C)(CNC(=O)C12CC3CC(C1)CC(c1ccccc1)(C3)C2)N1CCOCC1	114
O=C(NC1CCN(Cc2ccccc2)CC1)C12CC3CC(CC(C3)C1)C2	98
O=C(NC1CCN(Cc2ccccc2)CC1)C12CC3CC(CC(Cl)(C3)C1)C2	104

# get_value(readout='% cell viability at 10 μM', item= O=C(NCC(c1cccs1)N1CCOCC1)C12CC3CC(C1)CC(c1ccccc1)(C3)C2 (stereo not shown) )
90

====

assayProcedure: in vitro
conditions: African green monkey, Cytotox CC50
propertyLabel: CC50

CCC12CC3CC(C(=O)NC4CCNCC4)(C1)CC(c1ccccc1)(C3)C2 (stereo not drawn)	> 10 µM
CCN(CC)CCNc1nc(C23CC4CC(CC(C4)C2)C3)cs1	> 10 µM

Now look at this one.
# get_value(readout='CC50', item= CC1CCN(CC(O)COc2ccc(C34CC5CC(CC(C5)C3)C4)cc2)CC1 (stereo not drawn) )
3.7 µM

====

Let's look at some compounds and their measured pEC50.
System: EBOV mucin-domain-deleted glycoprotein pseudotyped VSV
assayProcedure: microbe, parasite or virus in culture
Format: cell-based, Zaire ebolavirus
conditions: Zaire ebolavirus, Vero, 24 h, read-out: EC50 EBOV
Note on pEC50: it is the negative log10 of concentration, concentration in mol/L.

O=C(CN1CCN(CCC23CC4CC(CC(C4)C2)C3)CC1)N1CCCCC1	5.22

Look up pEC50 with EBOV mucin-domain-deleted glycoprotein pseudotyped VSV for this compound: CC(NC(=O)C1CCCN1)C12CC3CC(CC(C3)C1)C2 (stereo in doubt)
5.34

Look up pEC50 with EBOV mucin-domain-deleted glycoprotein pseudotyped VSV for this compound: `O=C(NCCC12CC3CC(CC(C3)C1)C2)c1ccc(CN2CCOCC2)cc1`
5.64

Look up pEC50 with EBOV mucin-domain-deleted glycoprotein pseudotyped VSV for this compound: OC(COCCC12CC3CC(CC(C3)C1)C2)CN1CCc2ccccc2C1 (centres unmarked)
5.68

====

Test system: EBOV mucin-domain-deleted glycoprotein pseudotyped VSV
assayProcedure: microbe, parasite or virus in culture
Format: cell-based, Zaire ebolavirus
conditions: Zaire ebolavirus, Vero, 24 h, read-out: EC50 EBOV
propertyLabel: EC50 (nM)
All answers are understood in nM, so give the number only.

Field: example entries. Status: answers known.
Cc1ccc(C23CC4CC(CC(CN5CCCCC5)(C4)C2)C3)cc1 [Example D1]	1300
OCCN1CCN(CC(O)COc2ccc(C34CC5CC(CC(C5)C3)C4)cc2)CC1 (centres unmarked)	80
CN1CCN(c2nc(C34CC5CC(CC(C5)C3)C4)cs2)CC1	440

Now look at this one.
# get_value(readout='EC50', item= `COc1ccc(CNCCC23CC4CC(CC(C4)C2)C3)cc1` )
2190

====

Let's look at some compounds and their measured CC50.
assayProcedure: in vitro
conditions: African green monkey, CC50

O=C(N[C@H]1CCN(Cc2ccccc2)C1)C12CC3CC(C1)CC(c1ccccc1)(C3)C2	> 10 µM
O=C(C1C2CC3CC(C2)CC1C3)N1CCN(Cc2ccccc2)CC1 (stereo not drawn)	> 10 µM

# get_value(readout='CC50', item= CC(C)(C)NCC(O)COCCC12CC3CC(CC(C3)C1)C2 (stereo not drawn) )
> 10 µM

# get_value(readout='CC50', item= `CN1CC[C@@H](NC(=O)C23CC4CC(C2)CC(c2ccccc2)(C4)C3)C1` )
> 10 µM

# get_value(readout='CC50', item= `O=C(N1CCN(Cc2ccccc2)CC1)C12CC3CC(CC1C3)C2` )
> 10 µM

====

assayProcedure: in vitro
conditions: African green monkey, CC50
Let's look at some compounds and their measured CC50.

Field: example entries. Status: answers known.
O=C(CC12CC3CC(C1)CC(c1ccccc1)(C3)C2)NCC(=O)N1CCN(Cc2ccccc2)CC1	> 10 µM
CC(NC(=O)Cn1nnc(-c2ccco2)n1)C12CC3CC(CC(C3)C1)C2 (stereo not drawn)	> 10 µM
COC(=O)c1ccc(COc2ccccc2CN2CC3CC2CN3C(=O)CNC(=O)CC23CC4CC(CC(C4)C2)C3)cc1 (stereo not drawn)	> 10 µM
O=C(CC12CC3CC(C1)CC(c1ccccc1)(C3)C2)NC1CCNCC1	> 50 µM
CCC12CC3CC(C1)CC(c1ccc(OC[C@@H](O)CN4CCC(C)CC4)cc1)(C3)C2	> 100 µM

# get_value(readout='CC50', item= OC(COCCC12CC3CC(CC(C3)C1)C2)CN1CCOCC1 (stereo not drawn) )
> 10 µM

# get_value(readout='CC50', item= CC(NC(=O)Cn1ccc(C(F)(F)F)n1)C12CC3CC(CC(C3)C1)C2 (stereo not drawn) )
> 10 µM

# get_value(readout='CC50', item= `Nc1ccc(C23CC4CC(CC(C4)C2)C3)cc1` )
> 10 µM

# get_value(readout='CC50', item= CC12CC3CC(C(=O)NC4CCNCC4)(C1)CC(c1ccccc1)(C3)C2 (stereo not drawn) )
> 10 µM

====

assayProcedure: in vitro
conditions: African green monkey, CC50
propertyLabel: CC50 (µM)
All answers are understood in µM, so give the number only.

Field: example entries. Status: answers known.
O=C(N1CC2CC1CN2Cc1ccccc1)C12CC3CC(C1)CC(c1ccccc1)(C3)C2 (stereo not shown)	10.6
O=C(N1CC2(CCN(Cc3ccccc3)C2)C1)C12CC3CC(C1)CC(c1ccccc1)(C3)C2	6.9

Now look at this one.
# get_value(readout='CC50', item= `CCN(CC)CCNc1nc(C23CC4CC(CC(C4)C2)C3)cs1` )
9
